- assayTarget: T1, C-terminal domain of subunit 1 of the general transcription regulator TFIIF (RAP74-CTD) (UniProt P35269 450-517)
- T1 chain: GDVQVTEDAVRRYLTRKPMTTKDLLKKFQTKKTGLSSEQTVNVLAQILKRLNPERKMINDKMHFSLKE
- testName: ITC
property: Kd
The reply should consist of the numeric value with the unit placed after it.

Prompt line: Entry KKPGASLAALQELQLLQLLQELQAAQAAKKY (designed binder) [peptide δ] has what Kd?
Response line: 256 µM

Provenance of the data: paper PMC9674830
